Recorded values, source paper PMC10814725.

# experimental-details: Cell viability by CCK-8, HEK-Blue hTLR4 cells
# Format: cell-based
# run-parameters: human, HEK-Blue hTLR4 cells, 20 µM, 18 h, without LPS; read-out: Viability Cell (%) HEK-Blue hTLR4 Without LPS
result-type: viability at 18 h, 20 µM

Requested field: viability at 18 h, 20 µM. Item: CC(=O)O[C@H]1[C@@H](OC(C)=O)[C@]2(C)[C@H](CCC3=C(c4ccoc4)C[C@@H](O)[C@]32C)[C@@]2(C)C=CC(=O)C(C)(C)[C@H]12 > 99.9%

---

# experimental-details: Cell viability by CCK-8, THP-1 cells
# Format: cell-based
# run-parameters: human, PMA-differentiated THP-1 cells, 10 µM, 18 h, LPS 10 ng/mL; read-out: Viability Cell (%) THP-1 LPS-Induced (10 ng/mL)
I'd be grateful if you could share measured viability at 18 h, 10 µM for these entries.

Requested field: viability at 18 h, 10 µM. Item: CC(=O)O[C@H]1[C@@H](OC(C)=O)[C@@]2(C)C3=CC[C@@H](C4=CCOC4=O)[C@]3(C)CC[C@@H]2[C@@]2(C)C=CC(=O)C(C)(C)[C@H]12 > 99.9%

Requested field: viability at 18 h, 10 µM. Item: CC(=O)O[C@H]1[C@@H](OC(C)=O)[C@@]2(C)C3C(=O)C[C@@H](c4ccoc4)[C@]3(C)CC[C@@H]2[C@@]2(C)C=CC(=O)C(C)(C)[C@H]12 (some centres unmarked) > 99.9%

Requested field: viability at 18 h, 10 µM. Item: CC1(C)C(=O)C=C[C@]2(C)[C@H]3CC[C@]4(C)C(C(=O)C[C@H]4c4ccoc4)[C@]3(C)[C@H](O)C[C@@H]12 (stereo partly drawn) [Compound 1, 7α-hydroxyneotrichilenone] > 99.9%

Requested field: viability at 18 h, 10 µM. Item: CC(=O)O[C@@H]1[C@H](O)[C@H]2C(C)(C)C(=O)C=C[C@]2(C)[C@H]2CC[C@]3(C)C(=CC[C@H]3c3ccoc3)[C@]12C 83.9%

Requested field: viability at 18 h, 10 µM. Item: CC(=O)O[C@H]1[C@@H](OC(C)=O)[C@]2(C)[C@H](CC[C@@]3(C)[C@H](c4ccoc4)C(=O)[C@H]4O[C@@]423)[C@@]2(C)C=CC(=O)C(C)(C)[C@H]12 > 99.9%

Requested field: viability at 18 h, 10 µM. Item: CC1(C)C(=O)C=C[C@]2(C)[C@H]3CC[C@]4(C)C(=CC[C@H]4C4CCOC4=O)[C@]3(C)[C@H](O)C[C@@H]12 (some centres unmarked) > 99.9%

Requested field: viability at 18 h, 10 µM. Item: CC(=O)O[C@H]1[C@@H](OC(C)=O)[C@@]2(C)C3=CC[C@@H](c4ccoc4)[C@]3(C)CC[C@@H]2[C@@]2(C)C=CC(=O)C(C)(C)[C@H]12 52%

Requested field: viability at 18 h, 10 µM. Item: CC(=O)O[C@H]1[C@@H](OC(C)=O)[C@]2(C)[C@H](CCC3=C(c4ccoc4)C[C@@H](O)[C@]32C)[C@@]2(C)C=CC(=O)C(C)(C)[C@H]12 94%

Requested field: viability at 18 h, 10 µM. Item: CC1(C)C(=O)C=CC2(C)C1=C(O)C(=O)C1(C)C2(O)C(O)CC2(C)C(c3ccoc3)CC3OC321 (centres unmarked) > 99.9%

Requested field: viability at 18 h, 10 µM. Item: CC(=O)O[C@@H]1C[C@H]2C(C)(C)C(=O)C=C[C@]2(C)[C@H]2CC[C@@]3(C)[C@H](c4ccoc4)C[C@H]4O[C@]43[C@@]21C [Compound 13, trichilenone acetate] > 99.9%

Requested field: viability at 18 h, 10 µM. Item: CC(=O)O[C@@H]1C[C@]2(C)C(=CC[C@H]2c2ccoc2)[C@@]2(C)[C@H]1[C@@]1(C)C=CC(=O)C(C)(C)[C@@H]1C[C@H]2OC(C)=O > 99.9%

Requested field: viability at 18 h, 10 µM. Item: CC(=O)O[C@H]1[C@@H](OC(C)=O)[C@]2(C)[C@H](CC[C@@]3(C)[C@H](c4ccoc4)C[C@H]4O[C@@]423)[C@@]2(C)C=CC(=O)C(C)(C)[C@H]12 > 99.9%

Requested field: viability at 18 h, 10 µM. Item: CC(=O)O[C@@H]1C[C@H]2C(C)(C)C(=O)C=C[C@]2(C)[C@H]2CC[C@]3(C)C(=CC[C@H]3C3CCOC3=O)[C@@]21C (some centres unmarked) > 99.9%

Requested field: viability at 18 h, 10 µM. Item: C[C@]12C3=CC[C@@H](C4=CC(O)OC4=O)[C@]3(C)CC[C@@H]1[C@@]1(C)C(=O)C=C[C@@]3(C)CO[C@@H]([C@H]2O)[C@H]13 (some centres unmarked) 91.1%

Requested field: viability at 18 h, 10 µM. Item: CC(=O)O[C@H]1[C@@H](O)[C@@]2(C)C3=CC[C@@H](c4ccoc4)[C@]3(C)CC[C@@H]2[C@@]2(C)C=CC(=O)C(C)(C)[C@H]12 > 99.9%

Requested field: viability at 18 h, 10 µM. Item: CC(=O)O[C@@H]1C[C@H]2C(C)(C)C(=O)C=C[C@]2(C)[C@H]2CC[C@]3(C)C(C(=O)C[C@H]3c3ccoc3)[C@@]21C (some centres unmarked) > 99.9%

Requested field: viability at 18 h, 10 µM. Item: C[C@]12C3=CC[C@@H](c4ccoc4)[C@]3(C)CC[C@@H]1[C@@]1(C)C(=O)C=C[C@@]3(C)CO[C@@H]([C@H]2O)[C@H]13 96.7%
